src = paper PMC9482650

test target: T1, TIAM2, Q8IVF5
T1 sequence (Q8IVF5 885-986, limits assumed, looked up): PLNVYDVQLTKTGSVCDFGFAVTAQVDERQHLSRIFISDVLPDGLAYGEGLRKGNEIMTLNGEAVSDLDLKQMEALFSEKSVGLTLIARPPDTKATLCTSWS
experimental protocol: holdup assay
Parameters: key: below the threshold = too weak to quantify, mostly under pKd 3.1 to 4
cond: plain residues with an end cap or a label only (N-terminal biotin on a linker: ado-ado)
recorded endpoint: pKd

binder	pKd
SAKVRTVTSV [RASL11B, Q9BPW5]	below the threshold
QGLAERISVL [PRKD2, Q9BZL6]	below the threshold
LRSPRTPSEV [OR10G3, Q8NGC4]	below the threshold
VYPNAKVELV [PDLIM4_iso2, P50479;P50479-1]	below the threshold
QPCFNKLFPL [LPXN, O60711]	below the threshold
YRLAQESGLV [ABCC6, O95255]	below the threshold
SARSRLSSNL [HCN2, Q9UL51]	below the threshold
RRRESYSTTV [EVI5, O60447]	below the threshold
LKVPPEERLI [CRB2, Q5IJ48]	below the threshold
LPHGHSTTRV [NLGN4X, Q8N0W4]	below the threshold

Answer for every listed entry: what is its pKd? The entries follow.
1. MLSKQSESAI [FLVCR1, Q9Y5Y0]
2. TSQESEDTYL [TBC1D10A, Q9BXI6]
3. EVNETDDTKM [KCNJ1, P48048]
4. HSGYRLNDYV [CLDN14, O95500]

1: below the threshold; 2: below the threshold; 3: below the threshold; 4: below the threshold
